The entries below come with measured body temperature, t = 180 min values attached.
- Tested on: rats
- Assay explanation: Antipyretic activity, E. coli suspension as pyrogen
- Format: in vivo
- Measurement setup: 150 mg/kg transdermally; in °C (unit assumed)
- Experimental: Rats are administered with sterilized E. coli suspension as a pyrogen. Each group of rats are administered with a prodrug compounds or parent compounds at a dosage specified below. The prodrug compounds are administered either orally or transdermally. The parent compounds are administered orally.
Measured property: body temperature, t = 180 min

Molecule | Numeric result
CC(=O)O.CCN(CC)CCOC(=O)c1ccccc1OC(=O)c1ccccc1O [diethylaminoethyl salicylsalicylate.AcOH] | 36.40
CC(=O)O.CCN(CC)CCOC(=O)C(C)c1ccc(CC(C)C)cc1 (centres unmarked) | 36.30
CC(=O)O.CCN(CC)CCOC(=O)c1ccccc1O [diethylaminoethyl salicylate.AcOH] | 36.60
CCN(CC)CCOC(=O)c1ccccc1OC(C)=O [diethylaminoethyl acetylsalicylate.AcOH] | 36.26
CC(=O)O.CCN(CC)CCOC(=O)c1cc(-c2ccc(F)cc2F)ccc1O | 36.30
